tested on: LCMV-CL13; set-up: species or system mice (C57BL/6); conditions: mouse, in vivo
Quantity: number of virus-specific CD8+ T cells

Specify measured number of virus-specific CD8+ T cells for CCc1nc2c(C)nc(C)cc2n1-c1ccc(CCNC(=O)NS(=O)(=O)c2ccc(C)cc2)cc1 [CJ-23423] .
increased

Return number of virus-specific CD8+ T cells (reported value) for this molecule: COc1ccc2cc(OCC3(C(=O)O)CN(C(=O)c4ccc(F)cc4)C3)ccc2c1 [PF-04418948]
increased

Consider the molecule CCCCc1nn(-c2ccccc2C(F)(F)F)c(=O)n1Cc1ccc(-c2ccccc2S(=O)(=O)NC(=O)c2sccc2C)cc1 [L161,982] . State its measured number of virus-specific CD8+ T cells.
increased

Indicate its recorded number of virus-specific CD8+ T cells; the molecule in question is CC(C)Oc1ccc2c(=O)c3cc(C(=O)O)ccc3oc2c1 [AH6809]
increased
